- Tested on: MALME-3M melanoma
- Assay info: NCI tumour cell line growth inhibition, 48 h; in the data active = GI50 below about 0.43 µM; inactive = the rest
Hello, when you answer, please use one of the following outcomes: Y = active, N = inactive

Here's what some known entries look like.
Problem: Short answer needed: outcome of this test for COc1cc(Cc2c(C)cc(OC)c3[nH]c4ccccc4c23)cc2c1[nH]c1ccccc12 ?
Result: N

Problem: Please indicate how the test categorized COC1=C(OC)C(=O)C(C/C=C(\C)CC/C=C(\C)CC/C=C(\C)CC/C=C(\C)CC/C=C(\C)CC/C=C(\C)CC/C=C(\C)CC/C=C(\C)CC/C=C(\C)CCC=C(C)C)=C(C)C1=O .
Result: N

Problem: Which outcome did this test record for the molecule FC(F)c1ncc(-c2ccc(C(F)(F)F)cc2)c(NC2CCCCCC2)n1 ?
Result: N

Further cases:
Problem: I would be grateful if you could indicate the recorded call for COc1ccc2nc(C)cc(Sc3nc4ccccc4s3)c2c1 .
Result: Y

Problem: Check the results log: what was the call for O=C1NC(=O)C(c2cccc(Cl)c2)=C1Nc1ccc(Cl)c(C(=O)O)c1 ?
Result: N

Problem: Any idea what this test logged for O=C(Nc1ccc(-n2cc(-c3ccncc3)c(-c3ccc(O)c(Cl)c3)n2)cc1)c1ccc(Cl)c(C(F)(F)F)c1 ?
Result: N

Problem: // return assay outcome for OCCCCC#Cc1ccccc1C#Cc1cccnc1
Result: N

Problem: Test call for this molecule, please: CC(C)(C)c1ccc(C2CC(=O)C3=C(C2)Nc2ccccc2N(C(=O)c2ccccc2Cl)C3c2ccc(F)cc2)cc1 (centres undefined)
Result: N

Problem: Test call, this molecule: COc1cc(F)c(F)cc1C(=O)c1cnc(NC2CCN(S(C)(=O)=O)CC2)nc1N
Result: N

---

Each record here notes measured GI50.
- Test system: KM12 colon
- Assay info: NCI tumour cell line growth inhibition, 48 h

// known answers, use as guide
Problem: Form entry - test system: KM12 colon; read-out: GI50; compound: CN1CCN(Cc2ccc(NC(=O)c3[nH]ncc3Nc3ncnc4[nH]ccc34)cc2)CC1
Result: 0.347 µM

Problem: Report GI50 for CCCCCCCC(=O)[O-].CCCCCCCC(=O)[O-].N.N.N.N.[Co+3].[O-][Cl+3]([O-])([O-])[O-] tested on KM12 colon.
Result: > 100 µM

Problem: Given the entry COc1cc(/C=C/C(=O)CC(=O)/C=C/c2cc(OC)c(O)c(OC)c2)cc(OC)c1O , what GI50 was observed with KM12 colon?
Result: 13.5 µM

Problem: Report GI50 for CN(C)CCN1C(=O)c2cccc3c(/C=C/CN4C(=O)c5cccc6cccc(c56)C4=O)ccc(c23)C1=O tested on KM12 colon.
Result: > 100 µM

Problem: Given the entry CCOC(=O)c1c(-c2ccccc2)[n+](=O)c2cc(F)c(F)cc2n1[O-] , what GI50 was observed with KM12 colon?
Result: 2.01 µM

---
Problem: Form field - read-out: GI50; system: KM12 colon; submitted item: O=C(O)COc1ccc(OCC(=O)O)cc1
Result: 1.71 µM

Problem: Please provide the recorded GI50 for COc1cc(S(=O)(=O)Nc2nc(-c3ccc(N4C(=O)C(C)SC4c4ccccc4O)cc3)cs2)ccc1Cl (centres undefined) , tested on KM12 colon.
Result: 51.1 µM

Problem: Recall the recorded GI50 for CCN(CC)CCCNCc1cc(-c2ccccc2)nc2cc(Cl)ccc12 with KM12 colon and state it.
Result: 2.09 µM

Problem: Recorded GI50 for NC1=NC(SCc2ccccc2CCl)c2ncn(Cc3ccccc3CCl)c2N1 (centres undefined) with KM12 colon, please?
Result: 1.74 µM

---

- Test system: HOP-62 NSCLC
- Assay info: NCI tumour cell line growth inhibition, 48 h; in the data active = GI50 below about 0.43 µM; inactive = the rest
Pick one: active, inactive

Problem: How did this test come out for O=C(O)Cn1c2c(c3c1-c1ccccc1C3=O)C(=O)CCC2 ?
Result: inactive

Problem: Short answer needed: outcome of this test for COc1cc(/C=C/C(=O)CC(=O)/C=C/c2cc(OC)c(O)c(OC)c2)cc(OC)c1O ?
Result: inactive

Problem: What outcome does the record of this test show for O=C1C(N2CCN(CCOCCO)CC2)=C(Cl)C(=O)c2ncccc21 ?
Result: inactive

Problem: // outcome(item) with item = Nc1nc(Cl)nc2c1ncn2C1OC(CO)C(O)C1F (stereo unspecified)
Result: active

Problem: Test call for this compound, please: FC(F)c1ncc(-c2ccc(C(F)(F)F)cc2)c(NC2CCCCCC2)n1
Result: inactive

Continuing:
Problem: I would be grateful if you could indicate the recorded call for CN1CCN(C(=O)c2ccc(NC(=O)Nc3ccc(-c4nc(N5CCOCC5)c5cccn5n4)cc3)cc2)CC1 .
Result: active

Problem: Outcome? COc1cc(F)c(F)cc1C(=O)c1cnc(NC2CCN(S(C)(=O)=O)CC2)nc1N
Result: inactive

Problem: What is the recorded call for this compound in the test? CC(C)C[C@H](NC(=O)Cn1cccc(CNC(=O)c2ccccc2)c1=O)B(O)O
Result: inactive

Problem: Outcome logged for O=C(Nc1ccc(-n2cc(-c3ccncc3)c(-c3ccc(O)c(Cl)c3)n2)cc1)c1ccc(Cl)c(C(F)(F)F)c1 in this assay:
Result: inactive

Problem: Check the results log: what was the call for O=c1cc(-c2ccccc2)[nH]c2c1CCCC2 ?
Result: inactive

Problem: // param item: Cc1ccc(S(=O)(=O)n2cc([C@@]3(O)C[C@H](CSC#N)OC3=O)c3ccccc32)cc1 ; yields the recorded call
Result: inactive

---

- Test system: MOLT-4 leukemia
- Assay info: NCI tumour cell line growth inhibition, 48 h
// reported TGI for each item listed

Here is how some molecules turned out for TGI.
Problem: Observed TGI on MOLT-4 leukemia for Cc1cc(=O)[nH]c(NNC(C#N)c2ccccc2O)n1 (configuration not stated) , please.
Result: > 100 µM

Problem: Query for MOLT-4 leukemia: what TGI does the record show for CN(C)C=N[C@@H](C(=O)O)c1ccccc1 ?
Result: > 100 µM

Problem: Reported TGI for MOLT-4 leukemia, given O=C1NC(=O)C(=Cc2cn(Cc3ccccc3)c3ccccc23)C(=O)N1 ?
Result: 32.9 µM

Continuing:
Problem: Form entry - test system: MOLT-4 leukemia; read-out: TGI; molecule: O=C1CS/C(=N/S(=O)(=O)c2ccc(N3N=C4c5ccccc5CC4C3c3cccs3)cc2)N1C(=O)c1ccccc1 (configuration not stated)
Result: 53.4 µM

Problem: Reported TGI for MOLT-4 leukemia, given COc1cc(Cc2c(C)cc(OC)c3[nH]c4ccccc4c23)cc2c1[nH]c1ccccc12 ?
Result: > 25 µM

Problem: // map O=C(O)COc1ccc(OCC(=O)O)cc1 to recorded TGI (system: MOLT-4 leukemia)
Result: 23.5 µM

---

- Tested on: A549 NSCLC
- Assay info: NCI tumour cell line growth inhibition, 48 h
Measured TGI accompanies every entry in the list below.

Problem: Look up TGI with A549 NSCLC for this compound: O=c1[nH]nc(-c2ccccc2)c2[nH]c3c(c12)Cc1ccccc1-3
Result: > 100 µM

Problem: Form field - read-out: TGI; system: A549 NSCLC; submitted item: Cc1cc(=O)[nH]c(N/N=C/c2ccccc2O)n1
Result: > 100 µM

Problem: Lab note: need TGI with A549 NSCLC for entry COc1cc2nc(N3CCC[C@H](NC4=CC(=O)c5ccccc5C4=O)C3)nc(N)c2cc1OC , please look it up.
Result: 4 µM

***
Problem: # returns recorded TGI (system: A549 NSCLC) for Cc1cc(S(=O)(=O)Nc2nc3cscc3c(=O)n2N)c(S)cc1Cl
Result: > 100 µM

Problem: So what TGI did CCCCCCCCCCCNC=O get with A549 NSCLC?
Result: > 100 µM

Problem: API: value(readout=TGI, system=A549 NSCLC) for record CN(C)CCN1C(=O)c2cccc3c(/C=C/CN4C(=O)c5cccc6cccc(c56)C4=O)ccc(c23)C1=O
Result: > 100 µM

Problem: For A549 NSCLC, provide TGI of COc1ccc(/C=C2\CCCc3ccccc3C2=O)cc1 please.
Result: > 54.4 µM

Problem: Lab note: need TGI with A549 NSCLC for entry CC(c1ccccc1)n1cncc1C(=O)NN1CCN(C)CC1 (configuration not stated) , please look it up.
Result: > 10 µM

Problem: # get_value(readout= TGI, system= A549 NSCLC) for O=C1NC(=O)C(=Cc2cn(Cc3ccccc3)c3ccccc23)C(=O)N1
Result: 30.7 µM

Problem: State its TGI on A549 NSCLC: CC1=C(CO)C(=O)O[C@@H]([C@@H](C)[C@H]2CC[C@H]3[C@@H]4C[C@H]5O[C@]56[C@@H](O)C=CC(=O)[C@]6(C)[C@H]4CC[C@]23C)C1
Result: 3.96 µM

Problem: What value of TGI on A549 NSCLC does CC12CCC(=O)C(O1)C1C(=O)c3ccc4c(ccc5ccccc54)c3C(=O)C12 (configuration not stated) have?
Result: 33.2 µM
